The reported measurements were obtained from patent US6376497B1.

Could you please report measured Minimal inhibitory concentration (MIC) for the items listed next?
Tested on: Candida krusei K. 11655
test-details: In vitro antifungal activity, microbroth dilution MIC
Assay type: cell-based
study-conditions: C. krusei K. 11655, RPMI-1640, 35° C., 4 to 48 hours
One number for each entry, in µg/mL.

So, COc1ccc(C=C(F)OCC2COC(Cn3ccnc3)(c3ccc(Cl)cc3Cl)O2)cc1 (centres unmarked) [Ex. 9] ? Its Minimal inhibitory concentration (MIC) was 6.25

Please give Minimal inhibitory concentration (MIC), item by item, for the list that follows.
1. Cc1ccc(C=C(F)OCC2COC(Cn3ccnc3)(c3ccc(F)cc3F)O2)cc1C (mixture of isomers) [Ex. 40]
2. FC(=Cc1ccc2c(c1)OCO2)OCC1COC(Cn2ccnc2)(c2ccc(Cl)cc2Cl)O1 (centres unmarked) [Ex. 12]
3. COc1cccc(C=C(F)OCC2COC(Cn3ccnc3)(c3ccc(Cl)cc3Cl)O2)c1 (centres unmarked) [Ex. 8]
4. Cc1cccc(C(=C(F)OCC2COC(Cn3ccnc3)(c3ccc(Cl)cc3Cl)O2)C(F)(F)F)c1 (centres unmarked) [Ex. 20]

Reply:
1: 25.0; 2: 6.25; 3: 6.25; 4: 100

Lab note: FC(=Cc1ccc(F)cc1)OCC1COC(Cn2ccnc2)(c2ccc(F)cc2F)O1 (mixture of isomers) [Ex. 49] gave Minimal inhibitory concentration (MIC) of 25.0

----------
System: Candida albicans A. 10231
test-details: In vitro antifungal activity, microbroth dilution MIC
Type: cell-based
study-conditions: C. albicans A. 10231, RPMI-1640, 35° C., 4 to 48 hours
reported-metric: Minimal inhibitory concentration (MIC) (µg/mL)
Give bare numbers, in µg/mL.

Per the records, this compound ( FC(OCC1COC(Cn2ccnc2)(c2ccc(F)cc2F)O1)=C(c1cccc(F)c1)C(F)(F)F (mixture of isomers) [Ex. 65] ) has Minimal inhibitory concentration (MIC) equal to 12.5

Hi team, please reply with Minimal inhibitory concentration (MIC) for each item in this list.
1. CC(C)Oc1cccc(C=C(F)OCC2COC(Cn3ccnc3)(c3ccc(F)cc3F)O2)c1 (mixture of isomers) [Ex. 45]
2. Cc1ccc(C(=C(F)OCC2COC(Cn3ccnc3)(c3ccc(Cl)cc3Cl)O2)C(F)(F)F)cc1C (stereo not shown) [Ex. 23]
3. Cc1cc(C)cc(C=C(F)OCC2COC(Cn3cncn3)(c3ccc(Cl)cc3Cl)O2)c1 (mixture of isomers) [Ex. 73]

Reply:
1: 25.0; 2: 6.25; 3: 50.0

----------
Would you kindly list Minimal inhibitory concentration(MIC), A. niger A. 16404 for each of these compounds?
System: Aspergillus niger A. 16404
test-details: In vitro antifungal activity, microbroth dilution MIC
Type: cell-based
study-conditions: RPMI-1640, 35° C., 4 to 48 hours, no growth observed

Solved entries (count: 3):
Short answer for FC(Oc1ccc(OCC2COC(Cn3ccnc3)(c3ccc(Cl)cc3Cl)O2)cc1)=C(c1cccc(Cl)c1)C(F)(F)F (mixture of isomers) : Minimal inhibitory concentration(MIC), A. niger A. 16404 was >100 µg/mL

Minimal inhibitory concentration(MIC), A. niger A. 16404 reading for COc1ccc(C(=C(F)N2CCN(c3ccc(OCC4COC(Cn5ccnc5)(c5ccc(Cl)cc5Cl)O4)cc3)CC2)C(F)(F)F)cc1 (mixture of isomers) : >100 µg/mL

According to the records, this compound FC(Oc1ccc(OCC2COC(Cn3cncn3)(c3ccc(Cl)cc3Cl)O2)cc1)=C(c1ccc(F)cc1)C(F)(F)F (mixture of isomers) displays Minimal inhibitory concentration(MIC), A. niger A. 16404 of >100 µg/mL

For every listed record, write down its Minimal inhibitory concentration(MIC), A. niger A. 16404.
1. FC(=C(c1cccc(Cl)c1)C(F)(F)F)N1CCN(c2ccc(OCC3COC(Cn4ccnc4)(c4ccc(Cl)cc4Cl)O3)cc2)CC1 (mixture of isomers)
2. FC(OCC1COC(Cn2cncn2)(c2ccc(Cl)cc2Cl)O1)=C(c1ccccc1)C(F)(F)F (mixture of isomers)
3. COc1ccc(C(=C(F)Oc2ccc(OCC3COC(Cn4ccnc4)(c4ccc(Cl)cc4Cl)O3)cc2)C(F)(F)F)cc1 (mixture of isomers)
4. FC(Oc1ccc(OCC2COC(Cn3ccnc3)(c3ccc(F)cc3F)O2)cc1)=C(c1cccc(Cl)c1)C(F)(F)F (mixture of isomers)

Reply:
1: >100 µg/mL; 2: >100 µg/mL; 3: >100 µg/mL; 4: >100 µg/mL

----------
System: Aspergillus furnigatus B. 19119
test-details: In vitro antifungal activity, microbroth dilution MIC
Format: cell-based
study-conditions: A furnigatus B. 19119, RPMI-1640, 35° C., 4 to 48 hours
Would you kindly list Minimal inhibitory concentration (MIC) for each of these molecules?
Give bare numbers, in µg/mL.

For reference, reported Minimal inhibitory concentration (MIC) for Cc1ccc(C(=C(F)OCC2COC(Cn3ccnc3)(c3ccc(F)cc3F)O2)C(F)(F)F)cc1C (mixture of isomers) stands at 50.0

Item: COc1cccc(C(=C(F)OCC2COC(Cn3ccnc3)(c3ccc(Cl)cc3Cl)O2)C(F)(F)F)c1 (stereo not drawn) | Minimal inhibitory concentration (MIC): 3.13

Record Cc1cc(C=C(F)OCC2COC(Cn3ccnc3)(c3ccc(Cl)cc3Cl)O2)ccc1Cl (stereo not drawn) , field Minimal inhibitory concentration (MIC): 6.25

For every item below, please supply its Minimal inhibitory concentration (MIC).
1. COc1cccc(C=C(F)OCC2COC(Cn3ccnc3)(c3ccc(Cl)cc3Cl)O2)c1 (stereo not drawn)
2. COc1ccc(C=C(F)OCC2COC(Cn3ccnc3)(c3ccc(Cl)cc3Cl)O2)cc1 (stereo not drawn)
3. Cc1cc(C)cc(C(=C(F)OCC2COC(Cn3ccnc3)(c3ccc(F)cc3F)O2)C(F)(F)F)c1 (mixture of isomers)

Reply:
[6.25, 6.25, 50.0]

For each entry beneath this line, provide reported Minimal inhibitory concentration (MIC).
1. FC(OCC1COC(Cn2ccnc2)(c2ccc(Cl)cc2Cl)O1)=C(c1cccc(Cl)c1)C(F)(F)F (stereo not drawn)
2. FC(OCC1COC(Cn2ccnc2)(c2ccc(Cl)cc2Cl)O1)=C(c1ccc(C(F)(F)F)cc1)C(F)(F)F (stereo not drawn)
3. FC(=Cc1ccccc1)OCC1COC(Cn2ccnc2)(c2ccc(F)cc2F)O1 (mixture of isomers)
4. FC(=Cc1ccccc1)OC[C@H]1CO[C@](Cn2ccnc2)(c2ccc(Cl)cc2Cl)O1 (relative stereo)
5. FC(OCC1COC(Cn2ccnc2)(c2ccc(Cl)cc2Cl)O1)=C(c1ccc2c(c1)OCO2)C(F)(F)F (stereo not drawn)
6. FC(OCC1COC(Cn2ccnc2)(c2ccc(F)cc2F)O1)=C(c1ccc2c(c1)OCO2)C(F)(F)F (mixture of isomers)

Reply:
1. 12.5
2. 100
3. 1.56
4. 1.56
5. 100
6. 25.0

----------
For each record, write down the corresponding Minimal inhibitory concentration(MIC), C. tropicalis A. 13803.
Tested on: Candida tropicalis A. 13803
test-details: In vitro antifungal activity, microbroth dilution MIC
Type: cell-based
study-conditions: RPMI-1640, 35° C., 4 to 48 hours, no growth observed

Known results for compounds:
Query FC(Oc1ccc(OCC2COC(Cn3ccnc3)(c3ccc(F)cc3F)O2)cc1)=C(c1ccc2c(c1)OCO2)C(F)(F)F (mixture of isomers) yields Minimal inhibitory concentration(MIC), C. tropicalis A. 13803 of 100 µg/mL

response.value for CCc1ccc(C(=C(F)Oc2ccc(OCC3COC(Cn4ccnc4)(c4ccc(Cl)cc4Cl)O3)cc2)C(F)(F)F)cc1 (mixture of isomers) (field: Minimal inhibitory concentration(MIC), C. tropicalis A. 13803) = >100 µg/mL

So, FC(Oc1ccc(OCC2COC(Cn3ccnc3)(c3ccc(Cl)cc3Cl)O2)cc1)=C(c1ccc(Cl)cc1)C(F)(F)F (mixture of isomers) ? Its Minimal inhibitory concentration(MIC), C. tropicalis A. 13803 was >100 µg/mL

Value of measured Minimal inhibitory concentration(MIC), C. tropicalis A. 13803 for the entry FC(=Cc1ccc2c(c1)OCO2)OCC1COC(Cn2cncn2)(c2ccc(Cl)cc2Cl)O1 (mixture of isomers) : 100 µg/mL

Look up Minimal inhibitory concentration(MIC), C. tropicalis A. 13803 for the entries below, preserving their order.
1. FC(=C(c1cccc(F)c1)C(F)(F)F)N1CCN(c2ccc(OCC3COC(Cn4ccnc4)(c4ccc(F)cc4F)O3)cc2)CC1 (mixture of isomers)
2. FC(=C(c1cccc(Cl)c1)C(F)(F)F)N1CCN(c2ccc(OCC3COC(Cn4ccnc4)(c4ccc(Cl)cc4Cl)O3)cc2)CC1 (mixture of isomers)
3. Cc1cccc(C(=C(F)N2CCN(c3ccc(OCC4COC(Cn5ccnc5)(c5ccc(Cl)cc5Cl)O4)cc3)CC2)C(F)(F)F)c1 (mixture of isomers)
4. FC(Oc1ccc(OCC2COC(Cn3ccnc3)(c3ccc(Cl)cc3Cl)O2)cc1)=C(c1cccc(F)c1)C(F)(F)F (mixture of isomers)
5. COc1ccc(C=C(F)OCC2COC(Cn3cncn3)(c3ccc(Cl)cc3Cl)O2)cc1 (mixture of isomers)
6. Cc1cc(C)cc(C(=C(F)OCC2COC(Cn3cncn3)(c3ccc(Cl)cc3Cl)O2)C(F)(F)F)c1 (mixture of isomers)

Reply:
1: >100 µg/mL; 2: >100 µg/mL; 3: 100 µg/mL; 4: >100 µg/mL; 5: >100 µg/mL; 6: >100 µg/mL

For each of the items listed, what is its Minimal inhibitory concentration(MIC), C. tropicalis A. 13803?
1. COc1ccc(C(=C(F)N2CCN(c3ccc(OCC4COC(Cn5ccnc5)(c5ccc(F)cc5F)O4)cc3)CC2)C(F)(F)F)cc1 (mixture of isomers)
2. COc1ccc(C(=C(F)N2CCN(c3ccc(OCC4COC(Cn5ccnc5)(c5ccc(Cl)cc5Cl)O4)cc3)CC2)C(F)(F)F)cc1 (mixture of isomers)
3. Cc1cccc(C(=C(F)Oc2ccc(OCC3COC(Cn4ccnc4)(c4ccc(F)cc4F)O3)cc2)C(F)(F)F)c1 (mixture of isomers)
4. FC(=Cc1ccc(F)cc1)Oc1ccc(OCC2COC(Cn3ccnc3)(c3ccc(Cl)cc3Cl)O2)cc1 (mixture of isomers)
5. Cc1ccc(C(=C(F)N2CCN(c3ccc(OCC4COC(Cn5ccnc5)(c5ccc(Cl)cc5Cl)O4)cc3)CC2)C(F)(F)F)cc1 (mixture of isomers)
6. FC(=C(c1ccc(Cl)cc1)C(F)(F)F)N1CCN(c2ccc(OCC3COC(Cn4ccnc4)(c4ccc(Cl)cc4Cl)O3)cc2)CC1 (mixture of isomers)

Reply:
1: >100 µg/mL; 2: >100 µg/mL; 3: >100 µg/mL; 4: >100 µg/mL; 5: >100 µg/mL; 6: >100 µg/mL
